- System Tested: T1, interleukin-2 beta receptor (SYMANSIS, #4122H) to which a human immunoglobulin Fc region was linked (UniProt P14784 27-239, limits assumed)
- T1 construct: Bought receptor-Fc, captured on anti-human immunoglobulin antibody; also called IL-2Rβ; CD122; not shown: human immunoglobulin Fc region
- T1 sequence (looked up): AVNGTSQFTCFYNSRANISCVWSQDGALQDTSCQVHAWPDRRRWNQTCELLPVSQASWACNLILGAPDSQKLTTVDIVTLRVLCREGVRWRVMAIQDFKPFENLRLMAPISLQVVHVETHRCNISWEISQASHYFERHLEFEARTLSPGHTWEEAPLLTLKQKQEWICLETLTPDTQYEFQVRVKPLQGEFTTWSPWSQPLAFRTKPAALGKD
- Test Name: SPR (Biacore T200); receptor-Fc captured on anti-human Ig CM5 chip, analog flowed; relative to analog 1 = 100%
- Method: In order to measure the binding affinities of the interleukin-2 analogs obtained in Example 4 for each of interleukin-2 alpha and beta receptors, surface plasmon resonance (SPR, BIACORE T200, GE Healthcare) was used. The binding affinities of the prepared analogs for the alpha and beta receptors were measured, and the binding affinity of each of the prepared analogs was compared with that of interleukin-2 analog 1 (aldesleukin). […]
Consider the following binders; for each one, report its Relative binding affinity (%).
Give bare numbers, in %.

// worked examples, Relative binding affinity (%) included
Binder	Relative binding affinity (%)
interleukin-2 analog 101 (ligand) PTSSSTKKTQLQLEHLLLDLQMILNGINNYKNPKLTRMLTFKFYMPKKATELKHLQCLEEELKPLEEVLNLAQSKNFHFEPRDLASNINVFVLELKGSETTFMCEYADETATIVEFLNRWITFSQSIISTLT	113
interleukin-2 analog 100 (ligand) PTSSSTKKTQLQLEHLLLDLQMILNGINNYKNPKLTRMLTFKFYMPKKATELKHLQCLEEELKPLEEVLNLAQSKNFHFEPRDYVSNINVFVLELKGSETTFMCEYADETATIVEFLNRWITFSQSIISTLT	2530

Short answer for interleukin-2 analog 70 (ligand) PTSSSTKKTQLQLEHLLLDLQMILNGINNYKNPKLTAMLTKKFYMPKKATELKHLQCLEEELKPLEEVLNLAQSKNFHYDPRDVVSNINVFVLELKGSETTFMCEYADETATIVEFLNRWITFSQSIISTLT : Relative binding affinity (%) was 10200
